- protocol.summary: Biodistribution in ddY mice
- Format: in vivo
- measurement.conditions: i.v. co-injection, 1 h
Marks after values point to notes of the source that are not given here.
# Radioactivity in Small intestine annotations

Past entries and their recorded results:
>>> recorded_measurement("COCCOc1ccc2c(c1)ncn2-c1ccc2c([77Br])ccc(N3CCC(N)CC3)c2n1 [[^77Br]2]")
"29.51 (7.92) %injected dose/gram tissue"
>>> recorded_measurement("COCCOc1ccc2c(c1)ncn2-c1ccc2c([125I])ccc(N3CCC(N)CC3)c2n1 [[^125I]4, reference compound]")
"25.44 (6.86) %injected dose/gram tissue"

Switching to the query record.
Entry under test: COCCOc1ccc2c(c1)ncn2-c1ccc2cccc(N3CCC(NC(=O)c4cccc([77Br])c4)CC3)c2n1 [[^77Br]3] . Its Radioactivity in Small intestine was 14.30 (0.23) %injected dose/gram tissue
